Documented koff across a set of binders
# target desc: T1, Human soluble IL-6R (human, UniProt P08887 20-358)
# T1 construct: Soluble recombinant form; biotinylated in some assays; also called hIL-6R; human IL-6R
# T1 sequence (looked up): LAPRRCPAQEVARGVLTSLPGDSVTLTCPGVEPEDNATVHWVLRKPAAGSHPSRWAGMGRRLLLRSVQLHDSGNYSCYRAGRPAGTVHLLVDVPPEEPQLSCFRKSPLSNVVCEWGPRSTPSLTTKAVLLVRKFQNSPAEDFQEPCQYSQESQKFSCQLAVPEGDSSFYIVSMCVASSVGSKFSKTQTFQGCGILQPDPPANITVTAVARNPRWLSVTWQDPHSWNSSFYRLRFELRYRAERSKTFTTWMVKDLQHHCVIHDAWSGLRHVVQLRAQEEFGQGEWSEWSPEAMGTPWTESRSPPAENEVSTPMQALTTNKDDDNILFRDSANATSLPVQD
# measurement notes: Biacore off-rate, periplasmic extract
API: value field is a number in s⁻¹; no unit string.

Given IL6R07 (VHH, also called PMP33A3; not shown: C-terminal c-myc and (His)6 tags) VHH: EVQLVESGGGLVQPGGSLRLSCAASGFTLDYGAIGWFRQAPGKEREGVSCISSSTGSTYYADSVKGRFTISRDNGKNTVYLQMNSLKPEDTAVYYCAADKMWSPCLVAANEEALFEYDYWGQGTQVTVSS , state its recorded koff.
0.000242

Given IL6R09 (VHH, also called PMP34G9; not shown: C-terminal c-myc and (His)6 tags) VHH: EVQLVESGGGLVQAGGSLRLSCAASGRTSSSYDMTWYRQVPGKEREFVAVISWSGGSTYYADSVKGRFTISRDNAKNTVYLQMNSLKPEDTAIYYCNAYTGGGDDYWGQGTQVTVSS , state its recorded koff.
0.00139

Given IL6R03 (VHH, also called PMP31A4; not shown: C-terminal c-myc and (His)6 tags) VHH: EVQLVESGGGLVQAGGSLRLSCAASGSIFKVNAMGWYRQAPGKQRELVAGIISGGSTNYADSVKGRLTISRDNAKNTVYLQMNSLKPEDTAVYYCSFVTTNSDYDLGRDYWGQGTQVTVSS , state its recorded koff.
0.0016

Given IL6R04 (VHH, also called PMP32C9; not shown: C-terminal c-myc and (His)6 tags) VHH: EVQLVESGGGLVQAGGSLRLSCAASGFTFDDYDIGWFRQAPGKEREGVSGISSSDGNTYYADSVKGRFTISSDNAKNTVYLQMNSLKPEDTAVYYCAAEPPDSSWYLDGSPEFFKYWGQGTQVTVSS , state its recorded koff.
0.00015
